system: HCV replicon 1AY93H; experiment: microbe, parasite or virus in culture; format: cell-based, Hepatitis C virus (HCV); conditions: read-out: 1A Y93H IC50; HCV replicon 1A Y93H; Replicon Assay A
readout.name: IC50 (nM)
State just the number; it will be interpreted in nM.

CCc1ccc(C2Oc3cc(-c4cnc([C@@H]5CCCN5C(=O)[C@@H](NC(=O)OC)C(C)C)[nH]4)cc(C)c3-c3cc4cc(-c5cnc([C@@H]6CCCN6C(=O)C(NC(=O)OC)C6C[C@@H](C)O[C@H](C)C6)[nH]5)ccc4n32)s1 (single isomer, unassigned) [Compound 546]	0.268

# ---- query compound ----
Give its IC50 value. Item: COC(=O)N[C@H](C(=O)N1C[C@H](F)C[C@H]1c1nc(-c2ccc3c(c2)OC(c2ccc(C)s2)n2c-3cc3cc(-c4c[nH]c([C@@H]5C[C@H]6C[C@H]6N5C(=O)[C@@H](NC(=O)OC)C5CCOCC5)n4)ccc32)c[nH]1)C1CCOCC1 (single isomer, unassigned) [Compound 731] 0.026

====

system: HCV replicon 1A; assay: microbe, parasite or virus in culture; type: cell-based, Hepatitis C virus (HCV); settings: HCV replicon 1A; Replicon Assay A
readout.name: IC50 (nM)
State just the number; it will be interpreted in nM.

Check out these entries, answers already filled in.
COC(=O)N[C@H](C(=O)N1CCC[C@H]1c1cnc(-c2ccc3c(c2)cc2n3C(c3cc4ccccc4s3)Oc3cc(-c4cnc([C@@H]5CCCN5C(=O)[C@@H](NC(=O)OC)C5CCOCC5)[nH]4)ccc3-2)[nH]1)C1CCOCC1 (single isomer, unassigned) [Compound 811]	0.042
COC(=O)N[C@H](C(=O)N1CCC[C@H]1c1ncc(-c2cc(F)c3c(c2)OC(c2cc(C)c(C)s2)n2c-3cc3cc(-c4cnc([C@@H]5C[C@@H](F)CN5C(=O)[C@@H](NC(=O)OC)C(C)C)[nH]4)ccc32)[nH]1)C(C)C (single isomer, unassigned) [Compound 514]	0.0474
COC(=O)N[C@H](C(=O)N1CCC[C@H]1c1ncc(-c2cc(F)c3c(c2)OC(c2cc4c(s2)CCC4)n2c-3cc3cc(-c4cnc([C@@H]5CCCN5C(=O)[C@@H](NC(=O)OC)C5CCOCC5)[nH]4)ccc32)[nH]1)C(C)C (single isomer, unassigned) [Compound 621]	0.0031

Request: IC50, test system HCV replicon 1A, entry COC(=O)N[C@H](C(=O)N1CCC[C@H]1c1ncc(-c2ccc3c(c2)OC(c2cc4ccccc4s2)n2c-3cc3cc(-c4cnc([C@@H]5C[C@@H](F)CN5C(=O)[C@@H](NC(=O)OC)C5CCOCC5)[nH]4)ccc32)[nH]1)C(C)C (single isomer, unassigned) [Compound 627] 0.00302

====

Measured IC50 values are reported for all entries that follow.
test system: HCV replicon 2B; assay: microbe, parasite or virus in culture; assay type: cell-based, Hepatitis C virus (HCV); details: read-out: 2B IC50; HCV replicon 2B; Replicon Assay A
State just the number; it will be interpreted in nM.

Give its IC50 value. Item: COC(=O)N[C@H](C(=O)N1CCC[C@H]1c1cnc(-c2ccc3c(c2)cc2n3C(c3cc4ccccc4s3)Oc3cc(-c4cnc([C@@H]5CCCN5C(=O)[C@@H](NC(=O)OC)C5CCOCC5)[nH]4)ccc3-2)[nH]1)C1CCOCC1 (single isomer, unassigned) [Compound 809] 4.2

For COC(=O)N[C@H](C(=O)N1CCC[C@H]1c1ncc(-c2cc(F)c3c(c2)OC(c2scc4c2OCCO4)n2c-3cc3cc(-c4cnc([C@@H]5C[C@H](F)CN5C(=O)[C@@H](NC(=O)OC)C(C)C)[nH]4)ccc32)[nH]1)C(C)C (single isomer, unassigned) then? 33.3

Cited source: patent US20160257697A1
